Molecular target: human IDO1 (LLTC-hIDO1 cells) (Homo sapiens, UniProt P14902)
Assay: Cell-based assay for IDO1 inhibition (kynurenine in supernatant)
Details: IDO1-transfected Lewis Lung carcinoma cells, 24 h; read-out: Cellular IC50
pIC50: −log10 of the molar value.
Reported pIC50 values are given for each entry in this list.

Below are worked cases with known answers.
molecule="Nc1noc2ncccc12 [Compound 2, Isoxazolo[5,4-b]pyridin-3-amine]" result="4.00 to 5.00"
molecule=Nc1noc2nc(C(F)(F)F)ccc12 result="5.00 to 6.00"
molecule=CSc1ncc2c(N)noc2n1 result="4.00 to 5.00"
molecule=Nc1noc2nc(Cl)c(F)cc12 result="> 6.00"
molecule=Nc1noc2nc(Cl)cc(C(F)(F)F)c12 result="4.00 to 5.00"

IN: Lab note: record pIC50 of CC(C)c1ccc2c(N)noc2n1 tested on human IDO1 (LLTC-hIDO1 cells) (Homo sapiens, UniProt P14902).
OUT: 4.00 to 5.00

IN: State the measured pIC50 (human IDO1 (LLTC-hIDO1 cells) (Homo sapiens, UniProt P14902)) of Cc1ncc2c(N)noc2n1
OUT: 4.00 to 5.00

IN: Please look at Nc1noc2nc(-c3ccc(F)cc3)ccc12 and tell me its recorded pIC50 on human IDO1 (LLTC-hIDO1 cells) (Homo sapiens, UniProt P14902).
OUT: 4.00 to 5.00

IN: State measured pIC50 of the molecule CN(C)CCOc1ccc2c(N)noc2n1 with human IDO1 (LLTC-hIDO1 cells) (Homo sapiens, UniProt P14902).
OUT: < 4.00

IN: Look up human IDO1 (LLTC-hIDO1 cells) (Homo sapiens, UniProt P14902) data: pIC50 of CS(=O)(=O)c1ccc2c(N)noc2n1 , then report it.
OUT: 4.00 to 5.00

* * *

Test system: Lewis Lung carcinoma cells transfected to express IDO1 (LLTC-hIDO1)
Assay: MTT cell viability in the cellular IDO1 assay
Assay type: cell-based
Conditions: same experiment as cellular IDO1 assay
Experimental: The viability of the cells in each well in the same experiment was determined using the 3-(4,5-dimethylthiazolyl-2-yl)-2,5-diphenyltetrazolium bromide (MTT) colourimetric assay. […] DMSO (100 μL/well) was added to dissolve the crystals and then the absorbance in each well was measured at 570 nm. Cell viability in each well was expressed as a percentage of untreated controls. […]
pIC50: −log10 of the molar value.
# pIC50 per entry

IN: Provide measured pIC50 value, entry: Nc1noc2ncncc12 [Compound 12, Isoxazolo[5,4-d]pyrimidin-3-amine]
OUT: < 4.00

IN: Give the reported pIC50 for this compound. Nc1noc2nccc(-c3ccccc3)c12 [Compound 13, 4-Phenylisoxazolo[5,4-b]pyridin-3-amine]
OUT: < 4.00

IN: Return reported pIC50. Input compound: Nc1noc2nc(Cl)c(F)cc12
OUT: < 4.00

* * *

In this section we review reported pIC50 values for a set of molecules.
Target: Recombinant human IDO1 (rhIDO1) (Homo sapiens (Human))
Sequence (P14902 whole entry): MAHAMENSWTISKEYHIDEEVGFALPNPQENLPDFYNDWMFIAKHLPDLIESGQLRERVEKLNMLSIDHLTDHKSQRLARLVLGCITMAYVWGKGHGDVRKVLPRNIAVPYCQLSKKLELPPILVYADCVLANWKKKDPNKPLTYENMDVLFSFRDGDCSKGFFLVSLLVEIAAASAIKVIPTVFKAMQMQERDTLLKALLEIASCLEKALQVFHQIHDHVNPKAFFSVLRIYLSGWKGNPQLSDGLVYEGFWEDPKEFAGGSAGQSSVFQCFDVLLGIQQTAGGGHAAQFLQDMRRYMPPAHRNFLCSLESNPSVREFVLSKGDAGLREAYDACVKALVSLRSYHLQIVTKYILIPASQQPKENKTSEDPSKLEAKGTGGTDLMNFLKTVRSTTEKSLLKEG
Experiment: Enzymatic assay for IDO1 activity
Conditions: rhIDO1 9 nM, 80 μM TRP, 37° C. 30 min
pIC50: −log10 of the molar value.

Worked cases, answers included:
molecule=Nc1noc2nc(Oc3cccc(Cl)c3)ccc12 result="< 4.00"
molecule=Cn1nccc1-c1ccc2c(N)noc2n1 result="< 4.00"
molecule=Nc1noc2nc(Cl)cc(C(F)(F)F)c12 result="< 4.00"
molecule=Nc1noc2nc(C(F)(F)F)ccc12 result="> 6.00"
molecule="Nc1noc2ncccc12 [Compound 2, Isoxazolo[5,4-b]pyridin-3-amine]" result="< 4.00"
molecule="COc1ccnc2onc(N)c12 [Compound 51, 4-Methoxyisoxazolo[5,4-b]pyridin-3-amine]" result="< 4.00"

IN: For Nc1noc2ncc(-c3ccc(F)cc3)cc12 , write its pIC50.
OUT: < 4.00

IN: Read off the recorded pIC50 for Nc1noc2ncc(F)cc12 [Compound 14, 5-Fluoroisoxazolo[5,4-b]pyridin-3-amine]
OUT: < 4.00

Cited source for all entries: patent US10888567B2
